target: human 5-HT2B receptor (Homo sapiens); construct: host or cells: CHO cells; assay: 5-HT2B agonist activity assay (IP1 production, HTRF, transfected CHO cells); assay type: cell-based; conditions: 10 μM; percent of the control response to 1 μM 5-HT
Sequence (P41595 whole entry): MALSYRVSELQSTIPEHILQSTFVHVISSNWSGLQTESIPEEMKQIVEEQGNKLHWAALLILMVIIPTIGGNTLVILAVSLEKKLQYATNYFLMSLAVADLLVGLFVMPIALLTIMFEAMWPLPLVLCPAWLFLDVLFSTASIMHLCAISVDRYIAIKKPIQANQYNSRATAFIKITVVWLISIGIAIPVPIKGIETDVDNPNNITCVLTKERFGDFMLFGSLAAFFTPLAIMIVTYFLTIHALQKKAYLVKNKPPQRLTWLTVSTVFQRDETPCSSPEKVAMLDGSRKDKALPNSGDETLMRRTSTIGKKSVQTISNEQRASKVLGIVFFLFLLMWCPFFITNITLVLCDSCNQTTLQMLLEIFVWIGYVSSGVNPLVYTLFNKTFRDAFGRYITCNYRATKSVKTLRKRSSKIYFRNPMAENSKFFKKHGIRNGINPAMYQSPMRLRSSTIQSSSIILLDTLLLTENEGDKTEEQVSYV
Measured Metric: 5-HT2B % effect @ 10 μM (% @ 10 μM)

| Molecule | System Under Test | Measured Metric | Quantitative Result |
| --- | --- | --- | --- |
| CCCN1CCC[C@@H]2Cc3c(ccc(OCc4ccccc4)c3O)C[C@H]21 [Compound (2)] | human 5-HT2B receptor (Homo sapiens) | 5-HT2B % effect @ 10 μM | 30 |
| CCCN1CCC[C@@H]2Cc3c(ccc(OC(=O)C(C)(C)C)c3OC(=O)C(C)(C)C)C[C@H]21 [(Ic), reference compound] | human 5-HT2B receptor (Homo sapiens) | 5-HT2B % effect @ 10 μM | −5 |
| CCC[N@+]1(COP(=O)([O-])O)CCC[C@@H]2Cc3c(ccc(O)c3O)C[C@H]21 [Compound (9)] | human 5-HT2B receptor (Homo sapiens) | 5-HT2B % effect @ 10 μM | −1 |
| CCCN1CCC[C@@H]2Cc3c(ccc(OC)c3O)C[C@H]21 [Compound (3)] | human 5-HT2B receptor (Homo sapiens) | 5-HT2B % effect @ 10 μM | 27 |
| CCCN1CCC[C@@H]2Cc3c(ccc(OP(=O)(O)O)c3OP(=O)(O)O)C[C@H]21 [Compound (6)] | human 5-HT2B receptor (Homo sapiens) | 5-HT2B % effect @ 10 μM | 4 |

###

assay: Conversion of compounds in human plasma; assay type: in vitro ADME; details: 1 μM test compound, 37° C., 0-6 hours
Measured Metric: Observed metabolite, incubation in human plasma

| Compound Smiles | Result |
| --- | --- |
| CCCN1CCC[C@@H]2Cc3c(ccc(O)c3OP(=O)(O)O)C[C@H]21 | Compound (1) |
| CCC[N@+]1(COP(=O)([O-])O)CCC[C@@H]2Cc3c(ccc(O)c3O)C[C@H]21 | Compound (1) |
| CCCN1CCC[C@@H]2Cc3c(ccc(OCc4ccccc4)c3O)C[C@H]21 | Compound (1) |
